Tested on: hiPSC-CMs (iCell-Cardiomyocytes^2)
Experiment: MEA impedance (cytotoxicity readout) in hiPSC-CMs
Conditions: 10 µM; 48h
Quick reference: Imp (impedance), % change from baseline of the listed items.
Write the number in % without appending the unit.

These recorded examples may help you get a feel for the data.
QUERY: Assign Imp (impedance), % change from baseline to the following record: `CC(C)(Sc1cc(C(C)(C)C)c(O)c(C(C)(C)C)c1)Sc1cc(C(C)(C)C)c(O)c(C(C)(C)C)c1`
RESULT: -4

QUERY: Assign Imp (impedance), % change from baseline to the following record: `C#Cc1cccc(Nc2ncnc3cc(OCCOC)c(OCCOC)cc23)c1`
RESULT: -13

QUERY: Assign Imp (impedance), % change from baseline to the following record: `C[C@H](CS)C(=O)N1CCC[C@H]1C(=O)O`
RESULT: -10

Next:
QUERY: Assign Imp (impedance), % change from baseline to the following record: `CC1(C)S[C@@H]2[C@H](NC(=O)[C@H](N)c3ccc(O)cc3)C(=O)N2[C@H]1C(=O)O`
RESULT: -2

QUERY: Assign Imp (impedance), % change from baseline to the following record: COc1nc(N)nc2c1ncn2[C@@H]1O[C@H](COP(=O)(N[C@@H](C)C(=O)OCC(C)(C)C)Oc2cccc3ccccc23)[C@@H](O)[C@@]1(C)O (stereo partly drawn)
RESULT: 2

QUERY: Assign Imp (impedance), % change from baseline to the following record: `CC(=O)Oc1ccccc1C(=O)O`
RESULT: -7
